system: HL-60; assay: Relative potency compared to cytotoxicity against HL60/S cell line of etoposide; type: functional, Homo sapiens
experimental_readout: Relative potency
Numbers only.

These solved cases illustrate the format of a correct answer.
COc1cc([C@@H]2c3cc4c(cc3C[C@H]3COC[C@@H]32)OCO4)cc(OC)c1OC = 54.8
COc1cc([C@H]2c3cc4c(cc3C[C@H]3COC[C@@H]32)OCO4)cc(OC)c1OC = 0.23
COc1cc2c(cc1OC)C(c1cc(OC)c(OC)c(OC)c1)[C@H]1COC[C@@H]1C2 (stereo not given in full) = 3.08
COc1ccc([C@@H]2c3cc(OC)c(OC)cc3C[C@H]3COC[C@@H]32)cc1OC = 0.01

The reported HL-60 Relative potency of COc1ccc([C@H]2c3cc(OC)c(OC)cc3C[C@H]3COC[C@@H]32)cc1OC is 0.05
